endpoint.name: melting point (°C)

O=C1CCC2CC1CCC2=O :: 151
FC(F)(Cl)C(F)(F)Cl :: -94
Clc1ccc(Cl)c(Cl)c1 :: 17

I. COC(=O)c1ccc(O)c(O)c1
II. Nc1c(C=O)cnn1-c1ccc(Cl)cc1
Lower value of melting point belongs to which: I or II ? Write down the label of the entry you select.
II

A. CN(C)c1ccc(N=C(C#N)c2cccc(C(C#N)=Nc3ccc(N(C)C)cc3)c2)cc1
B. COC(=O)c1ccnnc1
C. CC1NC(C)SC(C)S1 (stereo not drawn)
Please list these compounds in decreasing order of melting point. Please, when replying, give the labels in the order that was requested.
A, B, C
(A: 150 °C, B: 66 °C, C: 46 °C)

* * *

endpoint.name: melting point (°C)

Example entries and their recorded answers appear below.
O=C1Nc2ccccc2/C1=C/c1ccccc1[N+](=O)[O-] :: 82
COc1cc([N+](=O)[O-])ccc1N1CCCC1 :: 60
Nc1cc(-c2ccccc2)nn1-c1ccccc1 :: 131
COC(=O)c1ccc(CC(C#N)(Cc2ccc(C(=O)OC)cc2)c2ccc(CC(C)C)cc2)cc1 :: 115

a. Oc1ccccc1N1CCCCC1
b. c1cnc2nccnc2c1
Parameter check: reported melting point is higher for which label, a or b ? Lab note: record the label of whichever item you select.
b

* * *

endpoint.name: melting point (°C)

C=C1C(=O)C23C4CC5C(C)(C)CCC(O)C5(C(OC)O4)C2C(O)CC1C3O (stereo unspecified) :: 261

P. CCN(CC)c1ccc2cc(C(=O)c3cc4ccc(N(CC)CC)cc4oc3=O)c(=O)oc2c1
Q. O=C=Nc1c(Br)cc(F)cc1Br
R. CC1(C)OC(=O)CC1CC(=O)O (stereo unspecified)
Order each entry by recorded melting point, climbing from the minimum. // rank by listing labels in the order requested
Q, R, P
(Q: 44 °C, R: 90 °C, P: 214 °C)

* * *

endpoint.name: melting point (°C)

Study these solved cases before continuing.
OCCN(CCO)c1ccc(N=Nc2ccccc2)cc1 :: 134
ClC=CCl :: -80

P. CC(C=CC=C(C)C=CC1=C(C)CCCC1(C)C)=CC=CC=C(C)C=CC=C(C)C=CC1=C(C)C(=O)CCC1(C)C
Q. CCCC(C(N)=O)n1nnc2ccccc21 (stereo unspecified)
// pick min by melting point: P , Q Indicate your choice by writing its label.
Q

* * *

endpoint.name: melting point (°C)

Worked examples, 3 compounds total:
O=C1NN=C(C(F)(F)F)C1=NNc1cc(-c2ccccc2)n[nH]1 :: 271
O=C1C=C(Nc2cccc(O)c2)c2ccccc2C1=O :: 300
c1ccc(N(c2ccccc2)c2ccccc2)cc1 :: 127

1. CCn1cc(C(=O)O)c(=O)c2ccc(-c3ccncc3)cc21
2. CC1CCC(C)(C(=O)CCOC(=S)Nc2ccccc2)C1(C)C (configuration not stated)
Exercise: compare 1 and 2 ; which one has the greater melting point? // respond with label for picked entry
1

a. CCCCCCCCOC(=O)CCCCCCCCC(=O)OCCCCCCCC
b. CCOC(=O)COc1ccc2c(=O)cc(-c3ccccc3)oc2c1
c. COc1c(F)cc(N)cc1F
Hi! Can you put these in order of melting point, lowest number first? Please write the labels in the order that was asked for.
a, c, b

* * *

endpoint.name: melting point (°C)

Consider the reported melting point for these compounds:
CC1=C(C(=O)OCc2ccccc2)C(c2cccc([N+](=O)[O-])c2)NC(=S)N1 (stereo not drawn) :: 176
COC(=O)[C@]1(O)CC2=C(c3c1cc(OC)nc3Cl)N(C)CCC2 :: 153

a. On1nnc2ccc(Cl)cc21
b. O=C(Cl)C=Cc1ccccc1Cl
c. Nc1c(O)cc(S(=O)(=O)O)c2ccccc12
Falling order of melting point, please. Quick reminder: the answer is the labels in the order asked.
c, a, b
(c: 295 °C, a: 197 °C, b: 38 °C)

src = a melting point compilation (Tetko et al.)
